Target: T1, human LAG-3 ECD (antigen protein of the affinity test) (human, UniProt P18627 23-450)
T1 sequence: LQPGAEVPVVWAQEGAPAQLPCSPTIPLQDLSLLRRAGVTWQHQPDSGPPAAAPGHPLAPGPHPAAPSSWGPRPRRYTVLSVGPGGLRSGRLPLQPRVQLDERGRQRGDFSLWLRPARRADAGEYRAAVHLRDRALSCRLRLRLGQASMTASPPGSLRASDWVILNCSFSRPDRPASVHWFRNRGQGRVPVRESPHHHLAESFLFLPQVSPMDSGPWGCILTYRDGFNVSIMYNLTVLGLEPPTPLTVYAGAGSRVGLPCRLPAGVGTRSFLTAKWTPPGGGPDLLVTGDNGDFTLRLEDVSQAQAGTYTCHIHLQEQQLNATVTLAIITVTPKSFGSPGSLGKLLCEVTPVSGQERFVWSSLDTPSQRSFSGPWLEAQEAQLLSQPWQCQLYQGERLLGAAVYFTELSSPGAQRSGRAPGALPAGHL
Test: SPR, CM5 chip, antibody captured by anti-human Fc IgG, antigen in flow, 1:1 fit
Task for the reader: assign each of the following binders its reported Kd.

// lookup Kd for 556F6B8-7 humanized antibody (antibody, V domains shown) VH: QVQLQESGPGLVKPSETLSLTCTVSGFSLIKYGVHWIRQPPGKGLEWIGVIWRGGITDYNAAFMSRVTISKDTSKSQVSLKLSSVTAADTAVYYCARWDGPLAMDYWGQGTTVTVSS VL: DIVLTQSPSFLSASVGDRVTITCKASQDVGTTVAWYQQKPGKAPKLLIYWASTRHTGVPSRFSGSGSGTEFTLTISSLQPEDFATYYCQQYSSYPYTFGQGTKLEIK 3.25 nM

// lookup Kd for 405B8H3-1 humanized antibody (antibody, V domains shown) VH: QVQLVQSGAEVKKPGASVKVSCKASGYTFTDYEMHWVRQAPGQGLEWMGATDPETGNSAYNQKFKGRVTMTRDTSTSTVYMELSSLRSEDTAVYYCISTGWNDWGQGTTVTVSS VL: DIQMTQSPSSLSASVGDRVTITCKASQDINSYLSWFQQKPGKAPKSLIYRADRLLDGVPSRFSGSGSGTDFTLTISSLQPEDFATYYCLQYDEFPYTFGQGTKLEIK 2.54 nM

// lookup Kd for 556F6B8 mouse-human chimeric antibody (antibody, V domains shown, also called mAb123-556F6B8; 556F8B8) VH: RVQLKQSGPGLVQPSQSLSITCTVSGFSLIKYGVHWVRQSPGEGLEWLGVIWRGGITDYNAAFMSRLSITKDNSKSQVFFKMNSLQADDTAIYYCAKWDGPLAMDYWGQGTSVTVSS VL: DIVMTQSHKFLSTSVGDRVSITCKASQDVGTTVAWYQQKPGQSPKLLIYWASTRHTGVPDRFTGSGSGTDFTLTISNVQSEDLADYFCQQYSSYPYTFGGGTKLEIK 3.39 nM
